I'd be grateful if you could share measured inhibition at 25 µM for these entries.
# System: B16-F10
# Procedure Details: Antimelanogenic activity in mouse B16F10 cells assessed as inhibition of alpha-MSH-stimulated melanin synthesis at 25 uM measured after 24 hrs
# Type: functional
# Condition Label: B16-F10, 24 h
Expressed in %, but write only the number.

Form field - read-out: inhibition at 25 µM; system: B16-F10; submitted item: O=C(/C=C/c1ccc(O)cc1O)N1CCCCC1
61.8

Under B16-F10: inhibition at 25 µM value of O=c1cc(CO)occ1O ?
37.6

Return inhibition at 25 µM measured with B16-F10 given this compound: COc1cc(/C=C/C(=O)N2CCCCC2)ccc1O
72.7

# get_value(readout= inhibition at 25 µM, system= B16-F10) for O=C(/C=C/c1ccc(O)cc1O)N1CCCC1
78.3
